- System: Escherichia coli TOP10;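 further: peptides expressed intracellularly from a pBAD plasmid library in pooled LB shake-flask culture, induced with 0.3% L-arabinose, DNA abundance read by NGS, three biological replicates, DESeq2 with apeglm shrinkage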
- assay explanation: shrunken log2 fold change of peptide-encoding DNA abundance (4.5 h post-induction vs induction); higher = less antimicrobial activity (less host growth inhibition)
- experimental setup: time post-induction: 4.5 h; library: site-saturation at positions 5, 18, 19, 20
Items are presented alongside their recorded shrunken log2 fold change.

{"polymer sequence": "RRIRKRPPRLPRPRPRPGAVPRP", "study target": "Escherichia coli TOP10", "shrunken log2 fold change": 0.749}
{"polymer sequence": "RRIRIRPPRLPRPRPRPCVMPRP", "study target": "Escherichia coli TOP10", "shrunken log2 fold change": -0.106}
{"polymer sequence": "RRIRMRPPRLPRPRPRPGKIPRP", "study target": "Escherichia coli TOP10", "shrunken log2 fold change": 0.0308}
{"polymer sequence": "RRIRLRPPRLPRPRPRPNTTPRP", "study target": "Escherichia coli TOP10", "shrunken log2 fold change": -0.463}
{"polymer sequence": "RRIRARPPRLPRPRPRPHLLPRP", "study target": "Escherichia coli TOP10", "shrunken log2 fold change": -0.0598}
{"polymer sequence": "RRIRERPPRLPRPRPRPHACPRP", "study target": "Escherichia coli TOP10", "shrunken log2 fold change": 0.013}
{"polymer sequence": "RRIRNRPPRLPRPRPRPPIFPRP", "study target": "Escherichia coli TOP10", "shrunken log2 fold change": 0.0391}
{"polymer sequence": "RRIRWRPPRLPRPRPRPFDIPRP", "study target": "Escherichia coli TOP10", "shrunken log2 fold change": -0.838}
{"polymer sequence": "RRIRKRPPRLPRPRPRPRPIPRP", "study target": "Escherichia coli TOP10", "shrunken log2 fold change": 0.824}
{"polymer sequence": "RRIRFRPPRLPRPRPRPIEEPRP", "study target": "Escherichia coli TOP10", "shrunken log2 fold change": 0.0565}
{"polymer sequence": "RRIRNRPPRLPRPRPRPFHQPRP", "study target": "Escherichia coli TOP10", "shrunken log2 fold change": 0.151}
{"polymer sequence": "RRIRNRPPRLPRPRPRPANSPRP", "study target": "Escherichia coli TOP10", "shrunken log2 fold change": -0.153}
{"polymer sequence": "RRIRHRPPRLPRPRPRPEELPRP", "study target": "Escherichia coli TOP10", "shrunken log2 fold change": -0.00776}
{"polymer sequence": "RRIRIRPPRLPRPRPRPVCTPRP", "study target": "Escherichia coli TOP10", "shrunken log2 fold change": -0.159}
{"polymer sequence": "RRIRERPPRLPRPRPRPGDVPRP", "study target": "Escherichia coli TOP10", "shrunken log2 fold change": -0.159}
{"polymer sequence": "RRIRLRPPRLPRPRPRPWCVPRP", "study target": "Escherichia coli TOP10", "shrunken log2 fold change": -0.35}
{"polymer sequence": "RRIRGRPPRLPRPRPRPCDEPRP", "study target": "Escherichia coli TOP10", "shrunken log2 fold change": 0.566}
{"polymer sequence": "RRIRMRPPRLPRPRPRPQGHPRP", "study target": "Escherichia coli TOP10", "shrunken log2 fold change": 0.0616}
{"polymer sequence": "RRIRERPPRLPRPRPRPSHYPRP", "study target": "Escherichia coli TOP10", "shrunken log2 fold change": -0.611}
{"polymer sequence": "RRIRERPPRLPRPRPRPACCPRP", "study target": "Escherichia coli TOP10", "shrunken log2 fold change": 0.0931}
{"polymer sequence": "RRIRKRPPRLPRPRPRPVMTPRP", "study target": "Escherichia coli TOP10", "shrunken log2 fold change": 0.0351}
{"polymer sequence": "RRIRLRPPRLPRPRPRPAVFPRP", "study target": "Escherichia coli TOP10", "shrunken log2 fold change": 0.142}
{"polymer sequence": "RRIRYRPPRLPRPRPRPYTLPRP", "study target": "Escherichia coli TOP10", "shrunken log2 fold change": -0.213}
{"polymer sequence": "RRIRTRPPRLPRPRPRPAYGPRP", "study target": "Escherichia coli TOP10", "shrunken log2 fold change": -0.285}
